Experiment: Half life was observed in rat after intravenous administration of 3-5 mg/kg; (n=3)
Format: ADME, organism-based
Conditions: in vivo, in the assay text read “1-5 mg/kg” for “3-5 mg/kg”
measured property: half-life (h)
Enter your answer as a number in h; do not include the unit.

*Q* Param item = `C[C@@H]1CCCN1CCc1cc2cc(C(=O)c3ccc(F)cc3)ccc2o1` ; retrieve measured half-life.
*A* 4.8

*Q* Do the same for `C[C@@H]1CCCN1CCc1cc2cc(C(=O)c3ccc(Cl)cc3)ccc2o1` please
*A* 12.4

*Q* Do the same for `C[C@@H](NC(=O)c1ccco1)C(=O)N1CCN(CCCOc2ccc(C(=O)C3CC3)cc2)CC1` please
*A* 0.7

*Q* Do the same for `COc1ccc(C(=O)c2ccc3oc(CCN4CCC[C@H]4C)cc3c2)cc1` please
*A* 2.5

*Q* Do the same for `C[C@@H]1CCCN1CCc1cc2cc(C(=O)c3ccccc3F)ccc2o1` please
*A* 2.6

*Q* Do the same for `C[C@@H]1CCCN1CCc1cc2cc(-c3cccc(C(C)(C)O)c3)ccc2o1` please
*A* 2.8

*Q* Do the same for `C[C@@H]1CCCN1CCc1cc2cc(C(=O)c3cccc(Cl)c3)ccc2o1` please
*A* 5.2

*Q* Do the same for `C[C@@H]1CCCN1CCc1cc2cc(-c3ccc(CO)cc3)ccc2o1` please
*A* 0.3

*Q* Do the same for `C[C@@H]1CCCN1CCc1cc2cc(C(=O)c3cccc(F)c3)ccc2o1` please
*A* 4.9

*Q* Do the same for `C[C@@H]1CCCN1CCc1cc2cc(-c3cccc(C(=O)C4CC4)c3)ccc2o1` please
*A* 5

*Q* Do the same for `C[C@H]1CCCN1CCc1cc2cc(-c3ccc(C#N)cc3)ccc2o1` please
*A* 17.7

*Q* Do the same for `C[C@@H]1CCCN1CCc1cc2cc(C(=O)c3cc(F)cc(F)c3)ccc2o1` please
*A* 7.8

*Q* Do the same for O=C(c1ccc(OCCCc2cnc[nH]2)cc1)C1CC1 [CIPROXIFAN] please
*A* 1.7

*Q* Do the same for `C[C@@H](N)C(=O)N1CCN(CCCOc2ccc(C(=O)C3CC3)cc2)CC1` please
*A* 4.4

*Q* Do the same for CC(O)c1cccc(-c2ccc3oc(CCN4CCC[C@H]4C)cc3c2)c1 (some centres not stated) please
*A* 7.6

*Q* Do the same for `Cc1cc(C(=O)c2ccc3oc(CCN4CCC[C@H]4C)cc3c2)ccc1Cl` please
*A* 7.6

*Q* Do the same for `C[C@@H]1CC[C@@H](C)N1CCCOc1ccc(-c2ccc(C(=O)N3CCOCC3)cc2)cc1` please
*A* 1.3

====

Experiment: Half life was observed in dog after intravenous administration of 1-5 mg/kg; (n=3)
Conditions: in vivo
measured property: half-life (h)
Enter your answer as a number in h; do not include the unit.

*Q* Param item = `C[C@@H]1CCCN1CCc1cc2cc(-c3ccc(C#N)cc3)ccc2o1` ; retrieve measured half-life.
*A* 8.3

====

Experiment: Volume of distribution was observed in monkey after intravenous administration of 1-5 mg/kg
Assay type: ADME, organism-based
Details: cercopithecidae, in vivo
measured property: Volume (L/kg)
Enter your answer as a number in L/kg; do not include the unit.

*Q* Param item = `CC(=O)c1cccc(-c2ccc3oc(CCN4CCC[C@H]4C)cc3c2)c1` ; retrieve measured Volume.
*A* 13.2

*Q* Do the same for `C[C@@H]1CC[C@@H](C)N1CCCOc1ccc(-c2ccc(C(=O)N3CCOCC3)cc2)cc1` please
*A* 7.5

*Q* Do the same for `C[C@@H]1CCCN1CCc1cc2cc(C(=O)c3ccc(F)cc3)ccc2o1` please
*A* 13.3

*Q* Do the same for `C[C@@H]1CCCN1CCc1cc2cc(C(=O)c3cccc(F)c3)ccc2o1` please
*A* 8.9

*Q* Do the same for `C[C@@H]1CCCN1CCc1cc2cc(-c3ccc(C#N)cc3)ccc2o1` please
*A* 12.7

Where do these numbers come from? They come from ChEMBL document CHEMBL1139496.
